Assay: Probe fluorescence ratio response to arachidonic acid relative to ADIFAB2
Assay type: binding
Settings: arachidonic acid; response relative to ADIFAB2
Reported DR/DR AA values for a set of molecules
Please give only the number in your answer, with no unit.

Any idea what DR/DR AA was measured for 74S 72A 73F (protein, listed as Rattus norvegicus, PEPTIDE (1)...(131) wild-type rat intestinal fatty acid binding protein) AFDGTWKVDRNENYEKFMEKMGINVVKRKLGAHDNLKLTITQEGNKFTVKESSNFRNIDVVFELGVDFAYSAFSGTELTGTWTMEGNKLVGKFKRVDNGKELIAVREISGNELIQTYTYEGVEAKRIFKKE ?
0.893

Need DR/DR AA of 106I, 72A (protein, listed as Rattus norvegicus, PEPTIDE (1)...(131) wild-type rat intestinal fatty acid binding protein) AFDGTWKVDRNENYEKFMEKMGINVVKRKLGAHDNLKLTITQEGNKFTVKESSNFRNIDVVFELGVDFAYSAADGTELTGTWTMEGNKLVGKFKRVDNGKELIAVIEISGNELIQTYTYEGVEAKRIFKKE , thanks.
0.481
